biological target: UniProt:P35372; assay: Displacement of [3H]-DAMGO from human mu opioid receptor transfected in CHO cells after 60 mins
Sequence (P35372 whole entry): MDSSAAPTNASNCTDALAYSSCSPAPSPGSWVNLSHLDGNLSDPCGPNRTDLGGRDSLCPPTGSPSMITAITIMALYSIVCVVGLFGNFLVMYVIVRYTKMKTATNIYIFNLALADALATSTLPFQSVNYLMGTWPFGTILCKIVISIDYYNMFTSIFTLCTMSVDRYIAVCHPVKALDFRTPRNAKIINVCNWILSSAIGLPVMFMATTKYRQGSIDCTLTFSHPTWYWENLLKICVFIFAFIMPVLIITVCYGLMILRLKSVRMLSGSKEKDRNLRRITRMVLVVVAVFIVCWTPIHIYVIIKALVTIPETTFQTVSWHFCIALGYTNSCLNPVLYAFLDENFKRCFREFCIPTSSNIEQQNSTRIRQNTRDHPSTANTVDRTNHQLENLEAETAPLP
Each item that follows carries a reported Ki.
// return numeric value only (unit: nM, not printed)

Worked examples, 3 compounds total:
[
  {
    "structure notation": "COc1ccc2c(c1)[C@]13CCN(CC4CC4)[C@H](C2)[C@@H]1Cc1sc(NC(C)=O)nc1C3",
    "Ki [nM]": 6.6
  },
  {
    "structure notation": "CNc1nc2c(s1)C[C@H]1[C@H]3Cc4ccc(O)cc4[C@@]1(CCN3CC1CC1)C2",
    "Ki [nM]": 0.14
  },
  {
    "structure notation": "CNc1nc2c(s1)C[C@H]1[C@H]3Cc4ccc(OC)cc4[C@@]1(CCN3CC1CC1)C2",
    "Ki [nM]": 9.6
  }
]

Query string: # get_value(readout='Ki', item= COc1ccc2c(c1)[C@]13CCN(CC4CC4)[C@H](C2)[C@@H]1Cc1sc(N)nc1C3 )
Result string: 6.7
